- Tested on: HepG2
- experiment_description: GSK_TCMDC: Percent inhibition of human HepG2 cell line. Test compounds present at 10uM.
- Type: functional
Consider the following compounds; for each one, report its Inhibition.
One number for each entry, in %.

State the recorded Inhibition for every item in the following list.
1. O=C(NOCCOc1ccccc1)c1ccccc1
2. CCN(CCCN1CCCCC1)c1cc(C)nc(Nc2ccc(C)cc2Cl)n1.O=C(O)C(F)(F)F

0
44

State the recorded Inhibition for every item in the following list.
1. Fc1cccc(CNc2ncc(-c3ccsc3)c(-c3nccs3)n2)c1
2. O=C(CCc1c[nH]cn1)Nc1cccc(-c2ccc(-c3nc4ccccc4[nH]3)s2)c1
3. COc1cccc(CCNCCCCCCNCCc2ccc(Cl)cc2)c1.Cl
4. CN1CCN(c2cc3c(cc2Cl)CCN3C(=O)Cc2ccc(NC(=O)Nc3cccc4ccccc34)cc2)CC1
5. COc1ccc2nc3ccccc3c(NCCN3CCN(C)CC3)c2c1

15
11
32
12
11

State the recorded Inhibition for every item in the following list.
1. Nc1ccc(-c2nc3cc(Cc4ccc5[nH]c(-c6ccc(N)cc6)nc5c4)ccc3[nH]2)cc1
2. Cc1ccc(-n2c(=O)c3c(n4c(SC(C)C)nnc24)-c2ccccc2CC32CCCCC2)cc1

47
8

Reported Inhibition, compound `Cl.O=C(c1cccc(COc2ccc3c(c2)CCN(C2CCCC2)CC3)c1)N1CCN(c2ccncc2)CC1` : ____
49

---

- Test system: Plasmodium falciparum
- experiment_description: GSK_TCMDC: Inhibition of Plasmodium falciparum 3D7 in whole red blood cells, using parasite LDH activity as an index of growth. Test compounds present at 2uM
- Type: functional
measured_property: Inhibition (%)
Answers are plain numbers, in %.

Example entries begin here.
molecule | unit_of_measure | Inhibition
COc1ccc(C2CC(c3ccccc3)=NN2C(=O)c2ccc(Br)o2)cc1 (stereo unspecified) | % | 96
CCOc1ccc(OCC(=O)Nc2nc(-c3ccc(OC)cc3)c(C)s2)cc1 | % | 99
CC(=O)Nc1ccc(CN2CCCN(c3cc(NC(=O)c4cccc(C)c4)ccn3)CC2)cc1.O=C(O)C(F)(F)F | % | 92
COc1ccc(CCn2c(=N)c(C(=O)NCc3cccnc3)cc3c(=O)n4ccccc4nc32)cc1 | % | 98
CC(C)(C)c1ccc(NC(=O)Nc2ccc(Cn3ncc(N4CCCNCC4)c(Cl)c3=O)cc2)cc1.O=C(O)C(F)(F)F | % | 95

State the recorded Inhibition for every item in the following list.
1. CCn1c(-c2nonc2N)nc2c(-c3cccc(NC(=O)NCc4ccccc4)c3)ncc(OCCCN)c21.O=C(O)C(F)(F)F
2. CCc1cn2c3c(cc(C(=O)N[C@@H](Cc4ccccc4)[C@H](O)CNC4CC4)cc13)N(CC)S(=O)(=O)CC2.O=CO
3. CC(=O)Nc1ccc(CN2CCc3ccc(NS(=O)(=O)c4ccc(-c5cccc(C(F)(F)F)c5)cc4)cc3CC2)s1
4. CC(C)N(Cc1ccc(-c2ccc(C(F)(F)F)cc2)cc1)C(=O)Cn1c(CCc2cccc(F)c2F)cc(=O)c2ccc(CCCN3CCCCC3)cc21.O=C(O)C(O)C(O)C(=O)O
5. Cc1sc2nc(CN3CCCC3)nc(-n3c(NCCO)nc4ccccc43)c2c1C
6. Cc1ccccc1Oc1ccc(Nc2ccnc(Nc3cccc(C(N)=O)c3)n2)cc1C(F)(F)F.Cl
7. C=CCn1c(=N)n(CC(O)c2ccc(Cl)c(Cl)c2)c2ccccc21.Cl (stereo unspecified)
8. COc1cc(CCNCC(O)c2ccc([N+](=O)[O-])c(OCc3ccccc3)c2)cc(OC)c1OC.Cl (stereo unspecified)

1. 99
2. 98
3. 82
4. 100
5. 96
6. 81
7. 91
8. 98
